pIC50 values for the molecules below.
Biological target: HCV NS3 protease (full length NS34a) (Hepatitis C virus genotype 1b, UniProt P26663)
Construct: The protease activity of the full length NS34a was measured using a FRET-based assay; made in house
Sequence (P26663 1658-1711): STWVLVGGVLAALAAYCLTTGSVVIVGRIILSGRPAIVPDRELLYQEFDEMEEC
Sequence (P26663 1027-1657): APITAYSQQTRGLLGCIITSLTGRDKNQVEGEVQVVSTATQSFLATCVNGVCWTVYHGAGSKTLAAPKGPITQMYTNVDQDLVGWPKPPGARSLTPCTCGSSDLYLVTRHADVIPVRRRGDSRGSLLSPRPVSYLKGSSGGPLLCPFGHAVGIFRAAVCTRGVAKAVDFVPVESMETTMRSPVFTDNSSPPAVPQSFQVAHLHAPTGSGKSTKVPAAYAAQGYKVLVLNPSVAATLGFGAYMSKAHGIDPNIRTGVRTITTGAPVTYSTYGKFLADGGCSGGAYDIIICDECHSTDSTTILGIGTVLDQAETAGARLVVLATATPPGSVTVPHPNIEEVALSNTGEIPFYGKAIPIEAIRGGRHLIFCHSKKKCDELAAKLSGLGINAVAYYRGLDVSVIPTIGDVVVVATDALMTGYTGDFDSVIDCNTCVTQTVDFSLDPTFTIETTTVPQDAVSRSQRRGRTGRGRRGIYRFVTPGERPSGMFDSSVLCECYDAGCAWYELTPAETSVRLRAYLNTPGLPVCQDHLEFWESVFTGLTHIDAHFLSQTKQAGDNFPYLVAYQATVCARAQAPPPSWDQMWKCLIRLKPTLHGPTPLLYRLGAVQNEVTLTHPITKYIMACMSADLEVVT
Test: HCV NS3 protease assay (FRET, full length NS34a)
Assay type: biochemical
Details: protease activity of full length NS34a, FRET peptide substrate; read-out: Activity IC50
On this scale, pIC50 is minus log10 of a concentration expressed in M (mol/L).

For orientation, consider the following solved cases.
CCC(NCc1cnc[nH]1)c1ccc(F)c(Oc2ccccc2)c1F (centres unmarked) [Example 37]
5.25
N[C@H](CC1CCNCC1)c1ccc(F)c(Oc2ccccc2)c1F [Example 82]
5.72
CC[C@@H](N)c1ccc(Cl)c(Oc2ccc(F)c(COC(=O)NCC3CC3)c2)c1F [Example 190]
5.74
C[C@@H](CC(N)=O)N[C@H](CC1CCNCC1)c1ccc(F)c(Oc2ccccc2)c1F [Example 84]
6.35
CC[C@@H](N)c1ccc(Cl)c(Oc2cccc(CNS(C)(=O)=O)c2)c1F [Example 157]
5.68

Inquiry: // lookup pIC50 for CC[C@@H](N[C@@H](C)CC(N)=O)c1ccc(Cl)c(Oc2ccc(-c3cnco3)c(C)c2)c1F [Example 317]
Reply text: 6.35

Inquiry: // lookup pIC50 for CC[C@@H](N[C@@H](C)CC(=O)NCCNC1CC1)c1ccc(Cl)c(Oc2ccccc2)c1F [Example 321]
Reply text: 5.80

Inquiry: // lookup pIC50 for CC[C@H](N[C@H](C)CC(N)=O)c1ccc(Cl)c(Oc2ccccc2)c1F (single isomer, unassigned) [Example 83]
Reply text: 5.17

Inquiry: // lookup pIC50 for CCC(CC)[C@@H](N)c1ccc(Cl)c(Oc2ccccc2)c1F [Example 346]
Reply text: 5.30
